Listed here are compounds together with their documented composite z-score.
TARGET SYSTEM: Torsin-1A-interacting protein 1 (Homo sapiens) (UniProt Q5JTV8)
Sequence (Q5JTV8 whole entry, looked up): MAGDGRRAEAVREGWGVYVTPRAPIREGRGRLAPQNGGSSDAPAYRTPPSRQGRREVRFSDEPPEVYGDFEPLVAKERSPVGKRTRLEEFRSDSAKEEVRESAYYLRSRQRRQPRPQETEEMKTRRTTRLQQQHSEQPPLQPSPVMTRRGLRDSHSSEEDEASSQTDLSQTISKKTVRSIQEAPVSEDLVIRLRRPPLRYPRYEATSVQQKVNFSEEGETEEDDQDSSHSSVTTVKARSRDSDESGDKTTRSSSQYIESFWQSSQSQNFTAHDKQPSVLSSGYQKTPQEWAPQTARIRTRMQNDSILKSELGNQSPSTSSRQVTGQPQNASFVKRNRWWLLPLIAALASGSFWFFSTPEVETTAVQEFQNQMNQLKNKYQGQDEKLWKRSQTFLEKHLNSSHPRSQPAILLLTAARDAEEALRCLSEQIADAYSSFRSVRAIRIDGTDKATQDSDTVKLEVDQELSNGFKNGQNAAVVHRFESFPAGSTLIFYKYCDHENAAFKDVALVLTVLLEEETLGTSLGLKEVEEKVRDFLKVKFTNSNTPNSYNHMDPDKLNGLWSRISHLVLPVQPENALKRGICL
TEST METHOD NOTES: LAP1 binders from COS7 cell lysate, primary screen, small-molecule microarray, 635/667 nm fluorescence (AID 1116)
PROTOCOL CONDITIONS: COS7-hLAP1 lysate binding, 635 nm fluorescence, higher = more signal
OBSERVED PROPERTY: composite z-score

COMPOUND	OBSERVED PROPERTY	MEASURED VALUE
CCOC(=O)[C@H](Cc1ccccc1)NC(=O)CCC1CC(OC(=O)NCCc2ccc(F)cc2)CC2(CCCC(COC(=O)NCCc3ccc(Cl)cc3)O2)O1 (some centres not stated)	composite z-score	0.949
COC(=O)CC=C[C@H](C)[C@@H](OCc1cccc(Br)c1)[C@@H](C)[C@H](OC)C1CCCCC1	composite z-score	-0.343
COc1ccc(O[C@@H]2[C@H](O)CO[C@@H]2C=Cc2ccccc2)cc1	composite z-score	0.288
COc1ccc(COC(=O)NN=C2C[C@@H](O)[C@@H](O)[C@@H]3[C@@H]4C(=O)N(Cc5ccccc5)C(=O)[C@@H]4CC[C@H]23)cc1	composite z-score	0.589
COC(=O)CC=C[C@@H](C)[C@@H](C=NO[C@H](C)c1cn([C@@H]2COC[C@H]2O)nn1)NS(=O)(=O)c1ccc(C)cc1	composite z-score	0.0982
CCOC(=O)[C@H](Cc1ccccc1)NC(=O)CCC1CC(OC(=O)NCc2ccc3c(c2)OCO3)CC2(CCCC(COC(=O)NCCc3ccccc3OC)O2)O1 (some centres not stated)	composite z-score	0.775
CCOC(=O)C1=NO[C@@]2(C=C(Br)C3(OCCCO3)[C@H]3O[C@H]32)C1	composite z-score	-0.143
CCOC(=O)[C@H](CC(C)C)NC(=O)CCC1CC(OC(=O)NCCc2ccc(F)cc2)CC2(CCCC(COC(=O)NCCc3ccc(Cl)cc3)O2)O1 (some centres not stated)	composite z-score	0.456
COC(=O)CC=C[C@@H](C)[C@@H](C=NO[C@@H]1O[C@H](COC(C)=O)[C@@H](OC(C)=O)[C@H](OC(C)=O)[C@H]1OC(C)=O)OC	composite z-score	-0.461
COc1ccc(COC(=O)NN=C2C[C@@H](O)[C@@H](O)[C@@H]3[C@@H]4C(=O)N(C5CCCCC5)C(=O)[C@@H]4CC[C@H]23)cc1	composite z-score	1.03
COC(=O)[C@@H]1CC[C@H](C)[C@@H](c2ccc(C)cc2)N1C(=O)c1ccc(C=NO[C@@H]2O[C@H](COC(C)=O)[C@@H](OC(C)=O)[C@H](OC(C)=O)[C@H]2OC(C)=O)cc1	composite z-score	0.218
COC(=O)CC=C[C@@H](C)[C@H](OCc1cccc(-c2ccccc2)c1)C1CCCCC1	composite z-score	0.14

---

TEST METHOD NOTES: small-molecule binders of probe aInhba, primary screen, biochemical, small-molecule microarray, 635/667 nm fluorescence (AID 1148);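 further: score merges 667nm spot fluorescence with signal-to-noise for antibody binding to printed compounds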
PROTOCOL CONDITIONS: higher = more signal
OBSERVED PROPERTY: composite z-score

> print(dat)
                                   compound  measured.value
1  CC(C)CON=C1C[C@@H](O)[C@@H](O)[C@@H]2[C@@H]3C(=O)N(C(C)(C)C)C(=O)[C@@H]3CC[C@H]12          -0.125
2  COc1cccc([C@H]2Oc3ccc(OC)cc3C(=NOC[C@@H](O)COCc3ccco3)[C@@H]2O)c1          -0.205
3  CCOC(=O)CCN1C(=O)[C@H]2[C@H]3[C@H](O)[C@H](O)CC(=NOCC(C)C)[C@H]3CC[C@H]2C1=O          -0.159
4  O=C1CCCC=C1C(CCc1ccccc1)OC(=O)c1ccc(Br)cc1 (centres undefined)          -0.218

---

TEST METHOD NOTES: A549 lung cancer cell viability effects, profiling panel, resazurin fluorescence, 24 h, PK04 Diversity Set (AID 1171); further: test concentration not given here
PROTOCOL CONDITIONS: higher = more signal, called active from +8 up or from −8 down
Labels assigned by z-score range: range A: < -0.05; range B: ≥ -0.05 and < 0.5; range C: ≥ 0.5

> print(dat)
                                    compound  assigned.label
 1  O=C1[C@H]2[C@H]3[C@H](O)[C@H](O)CC(=NOC[C@@H](O)COCc4ccco4)[C@H]3CC[C@H]2C(=O)N1Cc1ccccc1         range C
 2  CO[C@H]1COC(=O)CC=C[C@@H](C)[C@H](OC)COC(=O)[C@@H]2CCCN2C(=O)CC=C[C@@H]1C         range C
 3  CON=C(C)CCC(=O)OC[C@H]1O[C@H](c2ccccc2)C=C[C@@H]1Oc1ccc(OC)cc1         range C
 4  CO[C@@H]1COC(=O)[C@@H]2CCCN2C(=O)[C@@H](C)COC(=O)CC=C[C@H]1C         range C
 5  CCN1C(=O)[C@H]2[C@H]3[C@H](O)[C@H](O)CC(=NOC[C@H]4O[C@H](c5ccccc5)C=C[C@@H]4Oc4ccc(OC)cc4)[C@@H]3CC[C@H]2C1=O         range A
 6  CCc1cc2c(nc1CC)CCN(CCC(C)=NO[C@H](C)c1cn([C@@H]3COC[C@H]3O)nn1)C2         range A
 7  C#CCCCON=C1C[C@@H](O)[C@@H](O)[C@@H]2[C@@H]3C(=O)N(Cc4ccccc4)C(=O)[C@@H]3CC[C@@H]12         range B
 8  CO[C@H]1COC(=O)CC=C[C@@H](C)[C@H](OC)COC(=O)CCC[C@@H]1C         range C
 9  CC(=O)OC[C@H]1O[C@@H](ON=C(C)CCN2CCCc3nc(C)c(C)cc32)[C@H](OC(C)=O)[C@@H](OC(C)=O)[C@@H]1OC(C)=O         range B
10  CC(CCN1CCc2nc(-c3ccccc3)c(-c3ccccc3)cc2C1)=NOC[C@@H](O)[C@H]1O[C@@H]2OC(C)(C)O[C@@H]2[C@H]1O         range A
11  CCc1cc2c(nc1CC)CCN(CCC(C)=NO[C@@H](C)c1cn([C@H](CO)Cc3ccccc3)nn1)C2         range B
12  CC(=O)OC[C@H]1O[C@H](C#Cc2ccccc2)C=C[C@@H]1OC(C)=O         range A
13  CC(C)=CCCC(C)=CCON=C1C[C@@H](O)[C@@H](O)[C@@H]2[C@@H]3C(=O)N(C(C)(C)C)C(=O)[C@@H]3CC[C@H]12         range A
14  COC(=O)[C@@H]1CC[C@H](C)[C@@H](c2ccc(C)cc2)N1C(=O)c1ccc(C=NO[C@H](C)c2cn([C@@H]3COC[C@H]3O)nn2)cc1         range B
15  CCOC(=O)[C@H](CC(C)C)NC(=O)CCC1CC(OC(=O)NCCc2ccc(F)cc2)CC2(CCCC(COC(=O)NCC(c3ccccc3)c3ccccc3)O2)O1 (stereo partly drawn)         range B
16        O=C(C=Cc1ccc2c(c1)OCO2)c1ccc(F)cc1         range B
17  CO[C@@H]1COC(=O)CC=C[C@@H](C)[C@H](OC)COC(=O)[C@@H](C)COC(=O)CC=C[C@H]1C         range B
18  COc1ccc(COC(=O)NN=C2C[C@@H](O)[C@@H](O)[C@@H]3[C@@H]4C(=O)N(c5ccc(F)cc5F)C(=O)[C@@H]4CC[C@H]23)cc1         range C
19  C[C@@H](c1ccccc1)N1C(=O)[C@H]2[C@H]3[C@H](O)[C@H](O)CC(=NOCc4ccccc4)[C@H]3CC[C@H]2C1=O         range A
20  O=C1C[C@@H](O)[C@@H](O)[C@@H]2[C@@H]3C(=O)N(Cc4ccccc4)C(=O)[C@@H]3CC[C@@H]12         range C
21  COC(=O)[C@@H]1CC[C@H](C)[C@@H](c2ccc(C)cc2)N1C(=O)c1ccc(C=NOC[C@@H](C)[C@H](OCc2ccccc2)C(C)C)cc1         range A
22  CCCCC#C[C@@H]1C=C[C@H](OC(C)=O)[C@@H](COC(C)=O)O1         range B

---

TARGET SYSTEM: Left-right determination factor 2 (Homo sapiens)
TEST METHOD NOTES: LEFTY2 binders on small-molecule microarrays, primary screen, biochemical, small-molecule microarray, 635 nm fluorescence scan (AID 1110)
PROTOCOL CONDITIONS: LEFTY2 binding, higher = more signal

COMPOUND	TARGET SYSTEM	composite z-score
CC(C)=CCCC(C)=CCON=C1C[C@@H](O)[C@@H](O)[C@@H]2[C@@H]3C(=O)N(Cc4ccccc4)C(=O)[C@@H]3CC[C@H]12	Left-right determination factor 2 (Homo sapiens)	0.985
COC(=O)[C@@H]1CC[C@@H](C)[C@H](c2ccc(Br)cc2)N1	Left-right determination factor 2 (Homo sapiens)	0.445
CC(=O)Nc1ccc([C@@H]2N[C@H](C(=O)O)CC[C@H]2C)cc1	Left-right determination factor 2 (Homo sapiens)	0.523
COc1cc(O)c(C(=O)C=Cc2ccc3c(c2)OCO3)c(OC)c1	Left-right determination factor 2 (Homo sapiens)	-0.143
Cc1ccc(S(=O)(=O)NC(CCc2ccccc2)CC(=O)C(C)(C)C)cc1 (stereo not given)	Left-right determination factor 2 (Homo sapiens)	0.445
CCOC(=O)C1=NO[C@]2(C=C(Br)C3(OCCCO3)[C@H]3O[C@H]32)C1	Left-right determination factor 2 (Homo sapiens)	0.306
CCCNC(=O)OC[C@H]1O[C@H](CCON=C(C)CCN2CCCc3nc(C)c(C)cc32)C=C[C@@H]1Oc1ccc(OC)cc1	Left-right determination factor 2 (Homo sapiens)	0.425
CC(CCN1CCCCc2nc(C)c(C)cc21)=NO[C@@H](C)c1cn([C@H](CO)Cc2ccccc2)nn1	Left-right determination factor 2 (Homo sapiens)	0.813
O=C1OCCC=C1C(O)CCc1ccccc1 (stereo not given)	Left-right determination factor 2 (Homo sapiens)	0.791
CO[C@H]1COC(=O)[C@H](C)NC(=O)CC=C[C@@H](C)[C@H](OC)COC(=O)[C@@H](OCc2ccccc2)C=C[C@@H]1C	Left-right determination factor 2 (Homo sapiens)	0.591
CO[C@H]1COC(=O)CC=C[C@@H](C)[C@H](NS(=O)(=O)c2ccc(C)cc2)COC(=O)CCC[C@@H]1C	Left-right determination factor 2 (Homo sapiens)	0.8
CCCCC#C[C@@H]1C=C[C@H](OC(C)=O)[C@@H](COC(C)=O)O1	Left-right determination factor 2 (Homo sapiens)	0.579
CCOC(=O)[C@H](CC(C)C)NC(=O)CCC1CC(OC(=O)NCc2ccc3c(c2)OCO3)CC2(CCCC(COC(=O)NCCCN3CCCC3=O)O2)O1 (stereo not given in full)	Left-right determination factor 2 (Homo sapiens)	0.563
CCOC(=O)[C@H](Cc1ccccc1)NC(=O)CCC1CC(OC(=O)NCc2ccc3c(c2)OCO3)CC2(CCCC(COC(=O)NCCc3ccccc3OC)O2)O1 (stereo not given in full)	Left-right determination factor 2 (Homo sapiens)	0.816
CC(C)(C)N1C(=O)[C@H]2[C@H]3[C@H](O)[C@H](O)CC(=NO[C@@H]4O[C@H](CO)[C@@H](O)[C@H](O)[C@H]4O)[C@H]3CC[C@H]2C1=O	Left-right determination factor 2 (Homo sapiens)	0.4
COC(=O)CC=C[C@@H](C)[C@@H](C=NOC[C@@H](O)[C@H]1O[C@@H]2OC(C)(C)O[C@@H]2[C@H]1O)NS(=O)(=O)c1ccc(C)cc1	Left-right determination factor 2 (Homo sapiens)	0.417
COc1ccc(O[C@@H]2[C@H](O)CO[C@H]2C=Cc2ccccc2)cc1	Left-right determination factor 2 (Homo sapiens)	-0.547
CCOC(=O)[C@H](Cc1ccccc1)NC(=O)CCC1CC(OC(=O)NCc2cccc3ccccc23)CC2(CCCC(COC(=O)NCCC(C)C)O2)O1 (stereo not given in full)	Left-right determination factor 2 (Homo sapiens)	0.215
C#CCCCON=C1C[C@@H](O)[C@@H](O)[C@@H]2[C@@H]3C(=O)N(C(C)(C)C)C(=O)[C@@H]3CC[C@@H]12	Left-right determination factor 2 (Homo sapiens)	-0.442
CC(CCC(=O)OC[C@H]1O[C@H](C#Cc2ccccc2)C=C[C@@H]1Oc1ccc(C)cc1)=NO[C@H](C)c1cn([C@H](CO)Cc2ccccc2)nn1	Left-right determination factor 2 (Homo sapiens)	0.423
